Ref: patent US8940730B2

# measured on: hERG channel (Homo sapiens)
# Construct: host or cells: CHO (Chinese Hamster Ovary), stably transfected
# Sequence (Q12809 whole entry): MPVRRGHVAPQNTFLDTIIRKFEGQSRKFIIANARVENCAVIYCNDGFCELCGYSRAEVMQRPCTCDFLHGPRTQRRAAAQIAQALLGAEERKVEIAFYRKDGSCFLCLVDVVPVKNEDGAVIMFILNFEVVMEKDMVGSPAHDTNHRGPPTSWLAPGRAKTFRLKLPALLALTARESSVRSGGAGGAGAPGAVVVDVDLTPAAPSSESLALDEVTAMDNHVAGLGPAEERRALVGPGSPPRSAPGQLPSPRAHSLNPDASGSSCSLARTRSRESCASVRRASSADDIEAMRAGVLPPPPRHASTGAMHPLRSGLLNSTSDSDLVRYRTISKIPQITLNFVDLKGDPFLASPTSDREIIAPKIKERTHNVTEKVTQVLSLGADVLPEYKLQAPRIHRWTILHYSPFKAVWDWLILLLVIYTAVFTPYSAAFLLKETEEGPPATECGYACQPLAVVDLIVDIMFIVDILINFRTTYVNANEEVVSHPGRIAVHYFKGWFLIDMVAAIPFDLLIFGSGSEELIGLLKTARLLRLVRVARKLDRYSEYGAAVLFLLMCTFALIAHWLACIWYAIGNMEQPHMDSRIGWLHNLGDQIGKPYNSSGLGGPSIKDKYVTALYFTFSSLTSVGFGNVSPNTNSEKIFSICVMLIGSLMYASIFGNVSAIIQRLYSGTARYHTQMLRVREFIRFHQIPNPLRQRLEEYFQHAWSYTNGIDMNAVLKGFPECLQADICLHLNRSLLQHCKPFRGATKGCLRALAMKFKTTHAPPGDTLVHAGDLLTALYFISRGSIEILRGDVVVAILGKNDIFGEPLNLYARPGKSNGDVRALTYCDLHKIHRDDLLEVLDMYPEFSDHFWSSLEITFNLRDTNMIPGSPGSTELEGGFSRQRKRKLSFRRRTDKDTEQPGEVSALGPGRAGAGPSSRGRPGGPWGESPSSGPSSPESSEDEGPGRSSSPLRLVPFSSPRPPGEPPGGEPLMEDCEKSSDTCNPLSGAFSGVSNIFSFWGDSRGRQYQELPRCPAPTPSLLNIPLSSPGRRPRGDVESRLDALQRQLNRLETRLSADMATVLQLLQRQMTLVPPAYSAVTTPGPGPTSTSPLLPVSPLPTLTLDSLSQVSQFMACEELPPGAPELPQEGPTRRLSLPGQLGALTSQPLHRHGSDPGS
# measurement description: HERG channel assay (whole cell patch clamp, CHO cells)
# Format: cell-based
# measurement setup: CHO cells expressing hERG, tail current
Would you mind classing the entries by IC50? Ranges: label 0: < 0.9 µM; label 1: ≥ 0.9 µM and < 3 µM; label 2: ≥ 3 µM

Examples with answers:
Clc1ccc(Cn2nc(OCCCN3CCC[C@H]3CN3CCCC3)c3ccccc32)cc1
label 1
C[C@H]1CCCN1CCCOc1nn(Cc2ccc(Cl)cc2)c2ccccc12
label 0

Inquiry: Which category fits this record: `Clc1ccc(Cn2nc(OCC3CCNCC3)c3cc(Cl)ccc32)cc1`
Reply text: label 2

Inquiry: Where would `O[C@H]1CC[C@H](O)N1CCCOc1nn(Cc2ccc(Cl)cc2)c2ccccc12` land among the classes by reported IC50?
Reply text: label 1

Inquiry: Determine which band this compound sits in: `CCN(CC)c1ccc2c(c1)c(OCCCN1CCCC1)nn2Cc1ccc(Cl)cc1`
Reply text: label 1

Inquiry: Pick a category. Item: `OC[C@H]1CCCN1CCCOc1nn(Cc2ccc(Cl)cc2)c2ccccc12`
Reply text: label 0

Inquiry: Which category fits this record: `Clc1ccc(Cn2nc(OCCCN3CCC[C@H]3CNc3ccccc3)c3ccccc32)cc1`
Reply text: label 1

Inquiry: Could you place Clc1ccc(Cn2nc(OCCCN3CCCC3c3ccccc3)c3ccccc32)cc1 (centres unmarked) in its proper category? Many thanks.
Reply text: label 2

Inquiry: Class? Entry: `Clc1ccc(Cn2nc(OCCCN3CCCC3)c3ccccc32)cc1`
Reply text: label 1
